Field: selectivity ratio. Provide a value for each of the molecules that follow.
Assay: Selectivity index, ratio IC50 for cytotoxicity against human MRC5 cells to IC50 for antileishmanial activity against Leishmania infantum MHOM/MA(BE)/67 amastigotes infected in macrophages

For every item in the list below, what is its measured selectivity ratio?
1. CC1(COc2ccc(Cl)nc2)CCn2cc([N+](=O)[O-])nc2O1 (stereo not given)
2. CC1(COc2ccc(F)cn2)CCn2cc([N+](=O)[O-])nc2O1 (stereo not given)

## Output
> 23
> 40

Batch request: selectivity ratio for each of the following molecules.
1. CC1(COc2ccccc2)CCn2cc([N+](=O)[O-])nc2O1 (stereo not given)
2. CC1(COc2cnc(C(F)(F)F)cn2)CCn2cc([N+](=O)[O-])nc2O1 (stereo not given)
3. CC1(COc2cccc(C(F)(F)F)n2)CCn2cc([N+](=O)[O-])nc2O1 (stereo not given)

## Output
1: > 123; 2: > 29; 3: > 110
